FYI, the data here is from paper PMC9482650.

Target Or Test System: GRID2IP_2, A4D2P6
Sequence (A4D2P6 272-370): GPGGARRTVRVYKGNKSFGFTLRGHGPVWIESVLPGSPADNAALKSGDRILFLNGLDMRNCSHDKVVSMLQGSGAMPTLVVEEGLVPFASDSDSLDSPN
Assay: holdup assay
Set-up: key: below the threshold = too weak to quantify, mostly under pKd 3.1 to 4
Measurement Conditions: plain residues with an end cap or a label only (N-terminal biotin on a linker: ado-ado)
Everything with pKd lower than 4 is N; everything else, including exactly 4, is Y.

Examples with answers:
HSGYRLNDYV [CLDN14, O95500]: N
RRISSLESEV [GRIN2C, Q14957]: N
NLSIEKETKL [ASNSD1, Q9NWL6]: Y

Here's the next entry for you.
In plain terms: is recorded pKd at least 4 for AKPSRISTVV [IQSEC2, Q5JU85] ?
N
